- system-under-test: T1, human LgR5 ECD (amino acids 22-557 fused to His-Fc expressed in a baculovirus system, or amino acids 22-558 … (human, UniProt O75473 22-557))
- T1 construct: not shown: C-terminal His-tagged Fc
- T1 sequence: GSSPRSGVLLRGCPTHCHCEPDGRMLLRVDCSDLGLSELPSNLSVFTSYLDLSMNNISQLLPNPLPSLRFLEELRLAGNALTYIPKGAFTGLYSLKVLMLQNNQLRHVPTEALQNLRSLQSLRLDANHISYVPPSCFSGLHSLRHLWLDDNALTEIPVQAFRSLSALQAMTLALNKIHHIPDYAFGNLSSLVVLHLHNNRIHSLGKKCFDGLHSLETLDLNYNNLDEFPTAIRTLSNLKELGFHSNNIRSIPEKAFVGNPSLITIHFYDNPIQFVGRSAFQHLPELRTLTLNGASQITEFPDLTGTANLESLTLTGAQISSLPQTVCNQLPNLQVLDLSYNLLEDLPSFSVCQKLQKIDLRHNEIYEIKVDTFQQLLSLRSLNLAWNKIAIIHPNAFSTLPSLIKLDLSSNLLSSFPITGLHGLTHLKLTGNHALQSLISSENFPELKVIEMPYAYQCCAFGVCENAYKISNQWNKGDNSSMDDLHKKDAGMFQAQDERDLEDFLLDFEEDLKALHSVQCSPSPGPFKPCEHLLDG
- measurement-protocol: BIAcore-3000 SPR, IgG captured on goat anti-human Fc, human LgR5 ECD-Fc injected, 25 C, 1:1 Langmuir model
// reported kon for each item listed
property-label: kon (M⁻¹ s⁻¹)

INSERT INTO assay_data (binder, property_label, value) VALUES
  ('h8E11.v1 (antibody, V domains shown, VH CDR graft + 71S/78V; also called hu8E11.v1) VH: EVQLVQSGAEVKKPGASVKVSCKASGYTFSAYWIEWVRQAPGQGLEWIGEILPGSDSTDYNEKFKVRVTITSDTSTSTVYLELSSLRSEDTAVYYCARGGHYGSLDYWGQGTLVTVSS VL: DIVMTQSPDSLAVSLGERATINCRASESVDNYGNSFMHWYQQKPGQPPKLLIYLASNLESGVPDRFSGSGSGTDFTLTISSLQAEDVAVYYCQQNYEDPFTFGQGTKVEIKR', 'kon', 153000),
  ('h8E11.v7 (antibody, V domains shown, VH CDR graft + 71R/78A; also called hu8E11.v7) VH: EVQLVQSGAEVKKPGASVKVSCKASGYTFSAYWIEWVRQAPGQGLEWIGEILPGSDSTDYNEKFKVRVTITRDTSTSTAYLELSSLRSEDTAVYYCARGGHYGSLDYWGQGTLVTVSS VL: DIVMTQSPDSLAVSLGERATINCRASESVDNYGNSFMHWYQQKPGQPPKLLIYLASNLESGVPDRFSGSGSRTDFTLTISSLQAEDVAVYYCQQNYEDPFTFGQGTKVEIKR', 'kon', 117000),
  ('h8E11.v6 (antibody, V domains shown, VH CDR graft + 71A/78A; also called hu8E11.v6) VH: EVQLVQSGAEVKKPGASVKVSCKASGYTFSAYWIEWVRQAPGQGLEWIGEILPGSDSTDYNEKFKVRVTITADTSTSTAYLELSSLRSEDTAVYYCARGGHYGSLDYWGQGTLVTVSS VL: DIVMTQSPDSLAVSLGERATINCRASESVDNYGNSFMHWYQQKPGQPPKLLIYLASNLESGVPDRFSGSGSGTDFTLTISSLQAEDVAVYYCQQNYEDPFTFGQGTKVEIKR', 'kon', 143000),
  ('humanized monoclonal antibody 8E11.v2 (antibody, human IgG1, kappa, V domains shown, It was assessed as an IgG; also called hu8E11.v2; hu8E11v2) VH: EVQLVQSGAEVKKPGASVKVSCKASGYTFSAYWIEWVRQAPGQGLEWIGEILPGSDSTDYNEKFKVRATFTSDTSTSTVYLELSSLRSEDTAVYYCARGGHYGSLDYWGQGTLVTVSS VL: DIVMTQSPDSLAVSLGERATINCRASESVDNYGNSFMHWYQQKPGQPPKLLIYLASNLESGVPDRFSGSGSGTDFTLTISSLQAEDVAVYYCQQNYEDPFTFGQGTKVEIKR', 'kon', 279000),
  ('h8E11.v5 (antibody, V domains shown, VH CDR graft + 71R/78A; also called hu8E11.v5) VH: EVQLVQSGAEVKKPGASVKVSCKASGYTFSAYWIEWVRQAPGQGLEWIGEILPGSDSTDYNEKFKVRVTITRDTSTSTAYLELSSLRSEDTAVYYCARGGHYGSLDYWGQGTLVTVSS VL: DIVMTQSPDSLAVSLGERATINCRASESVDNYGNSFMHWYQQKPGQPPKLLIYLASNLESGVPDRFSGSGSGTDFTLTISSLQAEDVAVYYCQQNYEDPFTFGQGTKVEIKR', 'kon', 65000),
  ('h8E11.v3 (antibody, V domains shown, VH CDR graft + 71S/78V; also called hu8E11.v3) VH: EVQLVQSGAEVKKPGASVKVSCKASGYTFSAYWIEWVRQAPGQGLEWIGEILPGSDSTDYNEKFKVRVTITSDTSTSTVYLELSSLRSEDTAVYYCARGGHYGSLDYWGQGTLVTVSS VL: DIVMTQSPDSLAVSLGERATINCRASESVDNYGNSFMHWYQQKPGQPPKLLIYLASNLESGVPDRFSGSGSRTDFTLTISSLQAEDVAVYYCQQNYEDPFTFGQGTKVEIKR', 'kon', 112000),
  ('chimeric monoclonal antibody 8E11 (antibody, human IgG1, V domains shown, also called ch8E11; chimeric 8E11) VH: QVQLQQSGTELMKPGASVKISCKATGYTFSAYWIEWIKQRPGHGLEWIGEILPGSDSTDYNEKFKVKATFSSDTSSNTVYIQLNSLTYEDSAVYYCARGGHYGSLDYWGQGTTLKVSS VL: NIVLTQSPASLAVSLGQRATISCRASESVDNYGNSFMHWYQQKPGQPPKLLIYLASNLESGVPARFSGSGSRTDFTLTIDPVEADDAATYYCQQNYEDPFTFGSGTKVEIKR', 'kon', 210000),
  ('h8E11.v8 (antibody, V domains shown, VH CDR graft + 71A/78A; also called hu8E11.v8) VH: EVQLVQSGAEVKKPGASVKVSCKASGYTFSAYWIEWVRQAPGQGLEWIGEILPGSDSTDYNEKFKVRVTITADTSTSTAYLELSSLRSEDTAVYYCARGGHYGSLDYWGQGTLVTVSS VL: DIVMTQSPDSLAVSLGERATINCRASESVDNYGNSFMHWYQQKPGQPPKLLIYLASNLESGVPDRFSGSGSRTDFTLTISSLQAEDVAVYYCQQNYEDPFTFGQGTKVEIKR', 'kon', 242000),
  ('h8E11.v4 (antibody, V domains shown, VH CDR graft + 67A/69F/71S/78V; also called hu8E11.v4) VH: EVQLVQSGAEVKKPGASVKVSCKASGYTFSAYWIEWVRQAPGQGLEWIGEILPGSDSTDYNEKFKVRATFTSDTSTSTVYLELSSLRSEDTAVYYCARGGHYGSLDYWGQGTLVTVSS VL: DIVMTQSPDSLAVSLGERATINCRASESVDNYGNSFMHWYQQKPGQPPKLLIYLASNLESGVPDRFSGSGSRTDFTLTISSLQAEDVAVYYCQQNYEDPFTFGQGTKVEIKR', 'kon', 254000);
